# Test system: S. aureus 1466
# experimental_details: Antibacterial activity test (MIC, MBC, growth curve)
# Format: cell-based, Staphylococcus aureus
# test_parameters: Staphylococcus aureus; S. aureus 1466, mean ± SD of three independent experiments; read-out: MIC
// MIC lookup, one value per entry
measured_metric: MIC (µM)

# cpd_smiles, result
data = [
    ("CN(C)c1ccc(/C=C/C(=O)c2ccc(N(C)C)cc2)cc1", 250),
    ("CN(C)c1ccc(/C=C/C(=O)c2ccc(N)cc2)cc1", 375),
    ("Cc1ccc(C(=O)/C=C/c2ccc(N(C)C)cc2)cc1", 375),
    ("COc1ccc(C(=O)/C=C/c2ccc(N(C)C)cc2)cc1", 375),
    ("CN(C)c1ccc(/C=C/C(=O)c2cccs2)cc1", 375),
]
